Test system: Lefty1
Assay: Lefty1 binders on small-molecule microarrays, primary screen, biochemical, small-molecule microarray, 635/667 nm fluorescence (AID 1139)
Details: small-molecule microarray binding, fluorescence 635/667; higher = more signal
Quick rule: composite z-score of at least 0.6 means 1 (yes), below that means 0 (no).

Solved cases (3 shown):
compound=COc1ccc([Si](C)(C)[C@@H]2[C@@H](CCO)O[C@]3(C(=O)N(Cc4ccc(NC(=O)[C@H](C)O)cc4)c4ccccc43)[C@H]2C)cc1 group="0 (no)"
compound=O=C1O[C@H](c2ccccc2)[C@H](c2ccccc2)N2[C@H]1[C@@H](C(=O)NC[C@H](O)c1ccccc1)[C@]1(C(=O)Nc3ccc(C#CC4(O)CCCCCC4)cc31)[C@H]2c1ccc(OCCO)cc1 group="0 (no)"
compound=CO[C@@H]1COC(=O)[C@H](COCc2ccccc2)NC(=O)CC=C[C@@H](C)[C@H](OC)COC(=O)[C@H](COCc2ccccc2)NC(=O)CC=C[C@H]1C group="1 (yes)"

stdin: Can CCCNC(=O)[C@@H]1c2ccccc2C(=O)N(Cc2cc(F)cc(C(F)(F)F)c2)[C@H]1c1ccc(CO)cc1 be said to have composite z-score at or above 0.6?
stdout: 1 (yes)

stdin: What about COC(=O)C1=CC(c2ccc(CO)cc2)=CC(C2CC2)N(Cc2sc3ccccc3c2Cl)C=C1C(=O)OC (stereo unspecified) ?
stdout: 0 (no)

stdin: Check [N-]=[N+]=NCc1ccccc1C[C@@]1(C(=O)O)N=C(c2ccc(OCCCO)cc2)O[C@@H]1c1ccccc1N=[N+]=[N-] too.
stdout: 0 (no)

---

Assay: modulators of HCV replicon luciferase signal, primary screen, HCV replication inhibitor project, Huh7 cells, luciferase reporter (AID 1109);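 further: huh7 hepatoma cells harbouring a luciferase neomycin HCV replicon reporter; luciferase luminescence as measure of HCV replicon replication; test concentration not given here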
Conditions: 48 h, higher = more signal
reported-property: z-score
Please respond with just the number, no unit label.

stdin: Name the recorded z-score for CCCC[C@@H]1C[C@H]1[C@@H](NC(=O)c1cccs1)c1ccc(Cl)cc1 .
stdout: -1.27

stdin: Likewise for COC(=O)[C@@]1(Cc2ccccc2CN=[N+]=[N-])N=C(c2ccc(OCCCO)cc2)O[C@H]1c1ccccc1N=[N+]=[N-] ?
stdout: -1.53

stdin: Also CCCCCCc1nc(C2CC2)c(C)c2c1[Si](C(C)C)(C(C)C)OC2 , if possible.
stdout: 0.127

stdin: Now consider NC(=O)NCC#Cc1ccc2c(c1)[C@]1(C(=O)N2)[C@H](c2ccccc2OCCO)N2[C@H](c3ccccc3)[C@H](c3ccccc3)OC(=O)[C@H]2[C@@H]1C(=O)N1CCN(c2ncccn2)CC1 and answer again.
stdout: -0.729

---

Test: basal S. cerevisiae growth modulation, no modifier, primary screen, OD600, strain BY4716, 24 h, basal condition (AID 1173)
Conditions: OD600, 24 h, higher = more signal, called active from +8 up or from −8 down
reported-property: z-score
// return just the number, without any unit appended

molecule=CO[C@H]1COC(=O)[C@@H](C)NC(=O)CC=C[C@@H](C)[C@H](OC)COC(=O)CC=C[C@@H]1C number=-2.42
molecule=C[C@@H]1CC[C@H]2C(=O)N3[C@@H](CC[C@@H](C)[C@@H]3c3cccc(N4CCOCC4)c3)C(=O)N2[C@H]1c1cccc(N2CCOCC2)c1 number=-0.0109
molecule=C[C@H]1COC(=O)[C@H](Cc2ccccc2)NC(=O)[C@@H](C)COC(=O)[C@H](Cc2ccccc2)NC1=O number=-1.23
molecule="O=C1OCC=C[C@H]2OC34C=CCN(Cc5ccccc5)C(=O)[C@H]3N(CCO)C(=O)[C@@H]4[C@@H]12 (stereo partly specified)" number=-0.999
molecule=CCN1C(C)=C(C(=O)OC)[C@@H](c2ccccc2)N2C(=O)[C@](O)(C(=O)OC)[C@@H](c3ccccc3)C(C(=O)c3ccccc3)=C12 number=-3.46

Could you now look at the following molecule, please?
stdin: Form field: reported z-score of COCCOC(=O)N1C(=O)[C@@]2(c3cc(C#CCC(C(=O)OC)C(=O)OC)ccc31)[C@H](c1ccccc1OCCO)N1[C@H](c3ccccc3)[C@H](c3ccccc3)OC(=O)[C@H]1[C@@H]2C(=O)N1CCCCCCC1
stdout: 1.29

---

Experiment: small-molecule microarray binders of probe aEGFR, primary screen, biochemical, biotinylated probe, 635/667 nm fluorescence (AID 1097);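 further: probe is a biotinylated anti-EGFR antibody binding compounds printed on slides; score combines fluorescence near 667 nm and signal to noise of each spot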
Conditions: higher = more signal
Measured composite z-score values are reported for all entries that follow.

compound=C=CC[C@@]12N=C(c3ccc(OCCCO)cc3)O[C@@H]1c1ccccc1CN(Cc1ccccc1)C2=O result=0.0122
compound=CN(C)CCCC[C@@H]1NC(=O)[C@@H]2C[C@H](C(=O)O)[C@H](c3ccc(O)cc3)N2C1=O result=-0.0605
compound=CO[C@H]1O[C@H](CO)[C@@H](OC(=O)Nc2ccc3c(c2)OCO3)[C@H](OC(=O)Nc2ccccc2)[C@@H]1OC(=O)Nc1ccccc1 result=-0.144

# input for lookup
stdin: Given the entry COCCCNC(=O)[C@@]1(c2ccc([N+](=O)[O-])cc2)CC(=O)N(C2CCCCC2)[C@@H]1c1ccc(CO)cc1 , report its measured composite z-score.
stdout: -0.421

---

Target: Alpha-bungarotoxin (Bungarus multicinctus)
Test: alpha-bungarotoxin binders on microarray, profiling panel, artefact control for SMM control protein annotation, biochemical, small-molecule microarray, Alexa647 label, 635/667 nm fluorescence (AID 1117)
Settings: alpha-BTX-A647 binding fluorescence, higher = more signal
Returns one of True or False; True when composite z-score is >= 1.

compound=COCCOC(=O)N1C(=O)[C@@]2(c3cc(C#CCCO)ccc31)[C@H](c1ccc(O)cc1)N1[C@H](c3ccccc3)[C@H](c3ccccc3)OC(=O)[C@H]1[C@@H]2C(=O)Nc1nc2ccccc2s1 target_entity="Alpha-bungarotoxin (Bungarus multicinctus)" group=True
compound=CCOC(=O)C[C@H]1[C@H](OC(=O)c2ccccc2-c2ccccc2)[C@@H](NC(=O)C2CCCCC2)c2cc(OCCCO)ccc2N1C(=O)c1ccccc1 target_entity="Alpha-bungarotoxin (Bungarus multicinctus)" group=False
compound=NC(=O)NCC#Cc1ccc2c(c1)[C@]1(C(=O)N2)[C@H](c2ccccc2OCCO)N2[C@H](c3ccccc3)[C@H](c3ccccc3)OC(=O)[C@H]2[C@@H]1C(=O)N1CCN(c2ncccn2)CC1 target_entity="Alpha-bungarotoxin (Bungarus multicinctus)" group=False

stdin: Given the entry COc1ccc([Si](C)(C)[C@H]2[C@H](CCO)O[C@@]3(C(=O)N(Cc4ccccc4)c4ccc(N5C(=O)c6cccc7cccc5c67)cc43)[C@@H]2C)cc1 , answer whether its composite z-score meets or surpasses 1.
stdout: False

stdin: What would you report for COC(=O)[C@H]1[C@@H]2COc3ccccc3[C@H]2N[C@H]1C(=O)OC ?
stdout: False

stdin: Moving on to COC(=O)C1=CC(c2ccc(CO)cc2)=CC(C2CC2)N(Cc2sc3ccccc3c2Cl)C=C1C(=O)OC (stereo unspecified)
stdout: True

---

Biological target: Neurogenic locus notch homolog protein 2 (Homo sapiens) (UniProt Q04721)
Sequence (Q04721 whole entry, looked up): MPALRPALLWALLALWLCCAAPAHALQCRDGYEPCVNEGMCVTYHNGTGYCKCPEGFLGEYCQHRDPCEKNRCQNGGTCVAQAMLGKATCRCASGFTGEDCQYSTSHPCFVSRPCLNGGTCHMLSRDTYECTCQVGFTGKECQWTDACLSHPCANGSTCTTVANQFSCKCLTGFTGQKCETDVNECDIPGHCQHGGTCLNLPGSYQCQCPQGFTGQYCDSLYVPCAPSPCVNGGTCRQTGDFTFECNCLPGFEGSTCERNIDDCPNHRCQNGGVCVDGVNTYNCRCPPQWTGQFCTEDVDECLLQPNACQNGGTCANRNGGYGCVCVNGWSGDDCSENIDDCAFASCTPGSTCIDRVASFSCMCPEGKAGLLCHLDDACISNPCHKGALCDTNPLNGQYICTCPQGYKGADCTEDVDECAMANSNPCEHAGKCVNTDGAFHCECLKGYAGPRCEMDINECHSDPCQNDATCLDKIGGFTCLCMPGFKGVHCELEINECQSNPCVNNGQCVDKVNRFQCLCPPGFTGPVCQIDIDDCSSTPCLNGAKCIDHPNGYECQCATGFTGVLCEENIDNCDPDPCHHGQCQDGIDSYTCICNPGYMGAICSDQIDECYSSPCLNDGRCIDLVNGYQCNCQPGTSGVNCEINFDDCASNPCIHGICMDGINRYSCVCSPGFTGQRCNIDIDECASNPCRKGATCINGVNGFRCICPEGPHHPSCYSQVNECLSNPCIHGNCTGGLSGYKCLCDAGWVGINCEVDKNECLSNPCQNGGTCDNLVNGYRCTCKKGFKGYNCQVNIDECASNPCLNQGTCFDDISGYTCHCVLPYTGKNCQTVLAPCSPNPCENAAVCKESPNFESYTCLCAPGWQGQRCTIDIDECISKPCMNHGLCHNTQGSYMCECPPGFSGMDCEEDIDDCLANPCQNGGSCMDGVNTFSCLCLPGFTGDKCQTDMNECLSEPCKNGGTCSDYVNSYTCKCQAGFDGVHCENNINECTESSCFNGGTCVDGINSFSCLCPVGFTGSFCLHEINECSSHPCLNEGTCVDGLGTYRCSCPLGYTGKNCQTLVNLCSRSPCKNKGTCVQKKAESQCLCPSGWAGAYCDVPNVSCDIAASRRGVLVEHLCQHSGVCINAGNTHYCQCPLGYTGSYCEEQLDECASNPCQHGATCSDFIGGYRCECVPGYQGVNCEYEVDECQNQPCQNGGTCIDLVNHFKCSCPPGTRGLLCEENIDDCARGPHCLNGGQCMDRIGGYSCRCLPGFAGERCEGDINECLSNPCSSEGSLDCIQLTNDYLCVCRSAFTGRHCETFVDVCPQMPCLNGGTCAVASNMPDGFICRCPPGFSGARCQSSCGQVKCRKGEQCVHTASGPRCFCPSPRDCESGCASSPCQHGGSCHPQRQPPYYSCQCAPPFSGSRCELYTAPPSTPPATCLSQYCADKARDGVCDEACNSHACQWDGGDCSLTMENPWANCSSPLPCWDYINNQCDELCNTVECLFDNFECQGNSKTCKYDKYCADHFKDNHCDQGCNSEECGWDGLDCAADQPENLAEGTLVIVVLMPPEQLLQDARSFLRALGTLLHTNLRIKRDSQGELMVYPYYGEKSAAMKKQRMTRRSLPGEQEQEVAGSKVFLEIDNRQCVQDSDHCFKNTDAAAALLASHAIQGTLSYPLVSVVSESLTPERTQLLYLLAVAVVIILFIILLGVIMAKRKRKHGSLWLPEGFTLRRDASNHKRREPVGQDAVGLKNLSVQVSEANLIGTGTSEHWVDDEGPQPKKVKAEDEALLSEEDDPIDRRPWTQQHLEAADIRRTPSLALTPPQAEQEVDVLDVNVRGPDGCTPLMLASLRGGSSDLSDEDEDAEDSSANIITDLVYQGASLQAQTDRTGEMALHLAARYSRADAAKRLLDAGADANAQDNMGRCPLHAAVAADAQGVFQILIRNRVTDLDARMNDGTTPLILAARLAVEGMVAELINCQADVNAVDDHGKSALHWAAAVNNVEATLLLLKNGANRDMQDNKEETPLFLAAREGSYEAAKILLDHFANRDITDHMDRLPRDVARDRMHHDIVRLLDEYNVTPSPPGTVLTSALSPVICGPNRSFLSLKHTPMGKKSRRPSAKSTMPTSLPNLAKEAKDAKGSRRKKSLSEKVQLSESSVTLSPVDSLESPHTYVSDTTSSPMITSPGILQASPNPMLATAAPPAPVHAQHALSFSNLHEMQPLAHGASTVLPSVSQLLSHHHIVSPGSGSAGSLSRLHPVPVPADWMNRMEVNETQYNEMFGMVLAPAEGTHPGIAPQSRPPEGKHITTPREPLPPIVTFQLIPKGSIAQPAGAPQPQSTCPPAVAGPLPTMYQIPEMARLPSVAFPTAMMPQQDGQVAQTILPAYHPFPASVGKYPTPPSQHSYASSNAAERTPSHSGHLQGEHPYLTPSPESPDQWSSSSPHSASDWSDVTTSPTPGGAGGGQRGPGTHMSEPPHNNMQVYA
Test: Notch2 binders on small-molecule microarrays, primary screen, biochemical, small-molecule microarray, 635 nm fluorescence, stem cell growth factors (AID 1073)
Settings: Notch2 binding, higher = more signal
Items are presented alongside their recorded composite z-score.

Completed entries (count: 5):
compound=COC(=O)C[C@H]1O[C@]2(C(=O)N(C)c3ccccc32)[C@@H](C)[C@@H]1[Si](C)(C)c1ccc(OC)cc1 target_entity="Neurogenic locus notch homolog protein 2 (Homo sapiens) (UniProt Q04721)" reported_property="composite z-score" result=0.146
compound="O=C1C2C=CC(C(O)C(c3ccccc3)c3ccccc3)N(Nc3ccc([N+](=O)[O-])cc3)C2C(=O)N1c1ccccc1 (configuration not stated)" target_entity="Neurogenic locus notch homolog protein 2 (Homo sapiens) (UniProt Q04721)" reported_property="composite z-score" result=1.64
compound=Cc1ccc(S[C@]2(C(=O)NC3CC3)CC(=O)N(Cc3cc(C(F)(F)F)cc(C(F)(F)F)c3)[C@@H]2c2ccc(CO)cc2)cc1 target_entity="Neurogenic locus notch homolog protein 2 (Homo sapiens) (UniProt Q04721)" reported_property="composite z-score" result=0.1
compound=CCOC(=O)C1=CC[C@@H](c2ccccc2)N(S(=O)(=O)c2ccc(C)cc2)[C@H]1C target_entity="Neurogenic locus notch homolog protein 2 (Homo sapiens) (UniProt Q04721)" reported_property="composite z-score" result=1.59
compound=CC(C)[Si](OCC[C@H]1O[C@]2(C(=O)N(Cc3ccccc3)c3ccccc32)[C@@H](C)[C@@H]1[Si](C)(C)O)(C(C)C)C(C)C target_entity="Neurogenic locus notch homolog protein 2 (Homo sapiens) (UniProt Q04721)" reported_property="composite z-score" result=-0.0407

stdin: What value of composite z-score has been reported for the following compound? COc1cc(CO)cc(I)c1O[C@H]1C=C(C(=O)NCCO)C[C@@H](NCCc2c[nH]c3ccccc23)[C@@H]1O
stdout: 0.832

stdin: Again, but for C=C(CCCC)/C(=C/C[C@@H](OC(=O)c1ccncc1)c1ccc(CO)o1)c1cnc2ccccc2c1
stdout: 1.59
